src = the nanobody polyreactivity screen of Harvey et al. (2022)

procedure.details: yeast display, Sf9 membrane polyspecificity reagent, FACS + sequencing; frameworks hold sequencing errors
measurement.label: polyreactivity (PSR sort gate)

Completed entries (count: 5):
construct.sequence	polyreactivity (PSR sort gate)
QVQLVESGGGLVQEGGSLRLTCAASGSTFIGNAMGGYRQAPGKERELVAAITSSGGSTYYADSVKGRFTISRDNAKNTVYLQMNSLKPEDTALYYCAAKTWARGHYGYQARSNYWGQGTQVTVSS	high polyreactivity
QVQLVESGGGLVQAGGSLRLSCAASGSTFAYYSMGWYRQAPGKERELVAAISRTGGSTYYADSVKGRFTISRDNAKNTVYLQMNSLKPEDTAVYYCNARAPVGTFDYDYWGQGTQVTVSS	low polyreactivity
QVQLVESGGGLVQAGGSLRLSCAASGRTFYAYAMGWYRQAPGKERELVASISDRGGSTYYADSVKGRFTISRDNAKNTVYVQMNSLKPEDTAVYYCAAEYRTQRWFGSWGQGTQVTVSS	high polyreactivity
QVQLVESGGGLVQAGGSLRLSCAASGSTFESNTMGWYIQAPGKERELVAAISYSGGRTYYADSVKGRFTISRDNAKNTVYLQMNSLKPEDTAVYYCAARTFRISRMDYWGQGTQVTESS	high polyreactivity
QVQLVESGGGIVHAGGSLRLSCAASGFIFDTNAMGWYRQAPGKEREMVAAITNDDSTNYADSVKGRFTISRDNAKTTVYLQMNSLKPEDTSVYYCAAYYIAQVVWPTTFHQQEYDYWGQGSQVTVSS	low polyreactivity

So what does the record say about polyreactivity (PSR sort gate) for QVQLVESGGGLVQAGCSLRLSCAASGLIIPVYVMGWYRQAPGKERELVADITTVGSTYADSVKGRFTISRDNAKNTVYFQMNSLKPEDTAVYYFADDPPAQQYWWDHGNYWGQGTQVTVSS ?
low polyreactivity

And QVQLVDSRRGLVQAGGSLRLSCAASGRIFGYNAMGWYREAPGKVRELVAAISSGGGTNYADSVKGRFTISRDNAKNPVYLQMHSLKPEDTAVYYCAVRRRRYHTYYRGYDYWGQGTQVTVSS ?
low polyreactivity

And QVQLVESGGGIVQAGGSLRLSCAASGNIFHQNAMGWYRQAPGKERELVAAISGSAGSTYYADSVKGRFTISRDNAKNTVYLQMNSLKPEDTAVYYCAADYYWLYNYWGQGTQVTVSS ?
high polyreactivity

And QVQIVESGGGLVQAGGSLRLSCAASGRTFAWYAMGWYRQAPGKERELVAAITWSGGSTYYADSVKGRFTISRDNAKNTVYLQMNSLKPEETAVYYCAARTVVGWYSRYCYWGQGTQVTVSS ?
low polyreactivity

---

procedure.details: yeast display, Sf9 membrane polyspecificity reagent, FACS + sequencing; frameworks hold sequencing errors
measurement.label: polyreactivity (PSR sort gate)

Completed entries (count: 5):
construct.sequence	measurement.label	observed
QVQLVESGGGLVQAGGSLRLSCAASGFNITYVMGWYRQAPGKERELVAVITNGGSTYYADSVKGRFTISRDNAMNTVYLLMNSLKPEDTAVYYCAARARFRYDSYYYWGQGTQLTVSS	polyreactivity (PSR sort gate)	high polyreactivity
QVQLVDSGGVLVQAGGSLRLICAASGNTFAYYTLGWYRQAPGKEMELVAAIDYSGGSTYYADSVKGRFTISRDNAKNTVYLQMNSLKPEDTAVYYCASDYRWHFSESLGWFYEYGYWGQGTQVTVSS	polyreactivity (PSR sort gate)	low polyreactivity
QVQLVESGGGLVQAGGSLRLSCAASGRTFYTYAMGWYIQAPGKEREFVAAIRFSGGNTYYADSVKGRFTISRDNAKNTVYLQMKSLKPEDTAVYYCAARRLLYKYWTGGPYDYWGQGTQVTVSS	polyreactivity (PSR sort gate)	high polyreactivity
QVQLVESGGGLVQAGGSLRLSCAASGRTFTWYAMGWYRQAPGKERELVAVISRGGSTNYADSVKGRFTISRDNAKNTVYLQMKSLKPEDTAVYYCAARGLYRARLKLDYWGQGTQVTVSS	polyreactivity (PSR sort gate)	high polyreactivity
QVQLVESGGGLVQAGGSLRLSCAPSGYIFDIYAMVWYRQAPGKERELVAGITRNGGSTYYADSVKGRFTISRDNAKNTVYLQMNSLKPEDTAVYYCAAGWITRSLYHKYYSWGQGTQVTVSS	polyreactivity (PSR sort gate)	high polyreactivity

So what does the record say about polyreactivity (PSR sort gate) for QDQLVESGGGLVQAGGSLRLSCAASGYTLYTYAMGWNRQAPRKERELVAAISTGGGRTYNADSVKGRFTISRDNAKNTVYLQMICLKPEDTAVYYCAAPYRSLKTGRYDYWGQGTQVSVSS ?
high polyreactivity

And QVQLVESGGGLVQAGGSLRLSCAASGSIFDPYAMGWYRQAPGKERELVAAITSDGSTNYADSVKGRFTISRDNAKNTVYLQMNSLKPEDTAVYYCAARYNLGEYDYWGQGTQVTVSS ?
low polyreactivity

And QVQLVESGGGLVKAGGRLRLSSAASGSIFASYSIGWYRQAPWKERELVAAITVRGGRTYYADSVKGRFTISRDNAKNTVYLQMNSLKPEDTAVYYCAAVGKNRSWYDYWGQGTQVTVSS ?
high polyreactivity

---

procedure.details: yeast display, Sf9 membrane polyspecificity reagent, FACS + sequencing; frameworks hold sequencing errors
measurement.label: polyreactivity (PSR sort gate)

construct.sequence	measurement.label	observed
QVQLLESGGGLVQAGGSLRLSCAASGRTFEYYAMGWYRQAPGKERELDAAITSGGITYYADSVKGRFTISRDNAKITVYLQMNSLKPEDSAVYYCAAKGWYFGYGRYGYWGQGTQVTVSS	polyreactivity (PSR sort gate)	high polyreactivity
QVQLVESGGGLVQAGGSLRLSCAASGRIFDLNTMGWYRQAPGKERELVAAISSGGSTYYADSVNGRFTISRDNAKNTVYIQMNSLKPEDTAVYYCADAKIRGYLIRMYWGQRTQVTVSS	polyreactivity (PSR sort gate)	low polyreactivity
QVQLVESGGGLVQAGGSLRLSCAASGRTFGFYAMGWYRQAPGKERELVATISSSGGSTYYADSVKGRFTISRDNAKNTVYLQMNSLKPEDTAVYYCAKVVSGWRSHYIGDYWGQGTQVTVSS	polyreactivity (PSR sort gate)	low polyreactivity
QVQLVESGGGLVQAGGSLRLSCAASGFTFYKYAMGWYRQAPGKERELVATISWSGARTYYADSVKGRFTISRDNAKNTVYLQMNSLKPEDTAVYYCNARRAYRWKPYTGSAGMDYWGQGTQVTVSS	polyreactivity (PSR sort gate)	high polyreactivity

---

procedure.details: yeast display, Sf9 membrane polyspecificity reagent, FACS + sequencing; frameworks hold sequencing errors
measurement.label: polyreactivity (PSR sort gate)

Completed entries (count: 4):
construct.sequence	polyreactivity (PSR sort gate)
QVQLVESGGGLVQAGGSLRLSCAASGRIFPVYAMGWYRQAPGKERELVATISYSGSSTYYADSVKGRFTISRDNAKNTVYLQMNSLKPEDTAVYYCNADAFGPPGVQYYYWGQGTQVTVSS	low polyreactivity
QVQLVESGGGLVQAGGSLRLSCAASGSTGGYAMGWYRQAPGKERELVARISYSGGSTYYADSVKGRFTISRDNAKNTVYLQMNSLKPEDTAVYYCAARILYRYYYWGQGTQVTVSS	high polyreactivity
QVQLVESGGGLVQAGGSLSLSCAASGRSFRIYPMGWYRPAPGKERELVATITWRAGSTYYADSVKGRFTISRDNAKNTVYLLMNSLTPEDTAVYYFAAGRQYGGYRYDYWGQGTQVTVSS	high polyreactivity
QVQLVESGGGLVQSGGSLRLSCAASGSTFKYYAMGWYRQAPGKERELVAAISRSGGSTYYADSVKGRFTISRDNAKNTVYIQMNSLKPEDTAVYYCNAYYRYSFCELDKYGYWGQGTQVTVSS	high polyreactivity

So what does the record say about polyreactivity (PSR sort gate) for QVQLVESGGGLVQAGGSLRLSCAASGNIFDYYAMGWYRQAPGKERELVAAISTGTSTYADSVKGRFTISRDNAKNTVYLQMNSLKPQDTAVYYCAADVGIRPLNYNPYNYWGQGTQVTVSS ?
low polyreactivity

And QVQLVESGGGLVQAGGSLRLSCAASGITFDGYAMGWYRQAPGKERELVAAIRSSGGSTYYADSVKGRFTISRDNAKNTVYLQMNSLKPEDTAVYYCATDHAQKFRYRSPREYWGQGTQVTVSS ?
low polyreactivity

And QVQLVESGGGLVQAGGSLRLSCAASGSTFYVNAMGWYRQAPGKERELVAAIRYSGGRTYYADSVKGRFTISRDNAKNTVYLQMNSLKPEDTAVYYCAATTYYGGLYTREFDYWGQGTQVTVSS ?
low polyreactivity

And QVQLVESGGGLVQAGGSLRLSCAASGSIFGRNDMGWYRQAPGKERELVAAISGDTTTNYADSVKGRFTISRDNAKNTVYLQMNSLKPEDTAVYYCAAKYGYRRGTVRGYTRVYYWGQGTQVTVSS ?
high polyreactivity

And QVQIVESGGGLVQAGGSLRISCPASGRTFNYNAMGWYRQAPGKERELVAAITSGASTNYADSVKGRFTISRDNAKNTVFLQINRLKPEDTAVYYCAKATYPHEYDYWGQGTQVNVSS ?
low polyreactivity

And QVQLVESGGGLVPAGGTLRLSCAASGFNFYFNTMGWYRQATGKERELVAAISSGGSTYYADSVKGRFTISRDNAKNTVSFQMNSLKPEDTAVYYCNKDYLQYYPYDYWGHGTQVTVSS ?
low polyreactivity

And QVQLVESGGGLVQAGGSLRLICAASGSTFYIYAMGWYRQAPGKERELGATISSTGSTHYADSVKGRFTISRDNAKNTVYLQMNSLKPEDTAVYYCNRVYFGRYSRRDHWGQGTQVTVSS ?
high polyreactivity

And QVQLVESGGGLVQAGGSLRLSCAAYGFIFWYYDMGWYRQAPGKETELVAGITSGGSTNYEDSVKGRFTISRDNATNTVYLQMNRLKPEDTAVYYCAATYYGYHIRDDYWGQGTLVTVSS ?
low polyreactivity

And QVQLVESGGGLVQAGGSLRLSCAASGFIFRRYAMGWYRQAPGKERELVAAIRWDDGNTYYADSVKGRFTISRDNAKNTVYLQMNSLKPEDTAVYYCYADKWSSTDDWLYDYWGQGTQVTVSS ?
low polyreactivity
